B1: HDV Ribozyme (parent)
chain: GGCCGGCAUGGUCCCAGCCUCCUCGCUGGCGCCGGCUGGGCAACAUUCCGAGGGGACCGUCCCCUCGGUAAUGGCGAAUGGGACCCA

Variants of: B1
EXPERIMENT: self-cleavage, relative activity (ratio to wild type); higher = more cleavage; co-transcriptional
// label = yes if self-cleavage is not less than 0.5, otherwise no

Worked set:
RESIDUE_SEQUENCE	ASSIGNED_CLASS
GGCCGGCAUGGUCCCAGCCUCCUCGCGGGCGCCGGCUGGGCAACAUUCCGAGGGGACCGUCCCCUCGGUAAUGGCGAAUGGGAUCCA	yes
GGCCGGCAUGGUCCCAGCCUCCUCGCUGGCGCCGGCUGAGCAACAUUCCAAGGGGACCGUCCCCUCGGUAAUGGCGAAUGGGACCCA	no
GGCCGGCAUGGUCCCAGCCUCCUCGCUGGCGCCGGCUGGGCAACAUUCCGAGGGGACCGUCCCCUCGGUAAUGACGAAUGGGACUCA	no
GGCCGGCAUGGACCCAGCCUCCUCGCUGGCGCCGGCUGGGCAACAUUCCGAGGGGACCGUCCCCUCGGUAAUGUCGAAUGGGACCCA	no
GGCCGGCAUGGUCCCAGCCUCCGCGGUGGCGCCGGCUGGGCAACAUUCCGAGGGGACCGUCCCCUCGGUAAUGGCGAAUGGGACCCA	yes
GGCCGGCAUGGUCCCAGCCUCCUCGCUGGCGCCGGCUGGGCAAAAUUCCGAGGGGACCGUCCCCUCGGGAAUGGCGAAUGGGACCCA	yes
GGCCGGCAUGGUCCCAGCCUCCUCGCUGGCGCCGGCUGGGCAACAUUCCGUGGUGACCGUCCCCUCGGUAAUGGCGAAUGGGACCCA	yes
GGCCGGCAUGGUCCCAGCCUCCUCGCUGGCGCCGGCUGGGCAACAUUCCAAGGGGACCGUCCCCUCGGGAAUGGCGAAUGGGACCCA	yes
GGCCGGCAUGGUCCCAGCCUCCUCGCUGGCGACGGCUGGGCAACAUUCCCAGGGGACCGUCCCCUCGGUAAUGGCGAAUGGGACCCA	no
GGCCGGCAUGGUCCCAGCCUCCUCGCUGGCGCCGGCUGGGCAACCUUCCGAGGGGACCGUCCCCUCGGUAAUGGCGACUGGGACCCA	no

Req: Decide: is the reported value of self-cleavage for `GGCCGGUAUGGUCCCAUCCUCCUCGCUGGCGCCGGCUGGGCAACAUUCCGAGGGGACCGUCCCCUCGGUAAUGGCGAAUGGGACCCA` equal to or greater than 0.5?
Resp: no

Req: Check if self-cleavage >= 0.5 (inclusive). Item: `GGCCGGCAUGGUCCCAGCCUCCUCCGUGGCGCCGGCUGGGCAACAUUCCGAGGGGACCGUCCCCUCGGUAAUGGCGAAUGGGACCCA`
Resp: yes

Req: Quick check, self-cleavage >= 0.5? `GGCCGGCAUGGUCCCUGCCUCCUCGCUGGCGCCGGCUGGGCAACAUUCCGAGGGGACCGUCCCCUCGGUAAAGGCGAAUGGGACCCA`
Resp: yes

Req: Entry `GGCCGGCAUGGUCCCAUCCUCCUCGCUGGAGCCGGCUGGGCAACAUUCCGAGGGGACCGUCCCCUCGGUAAUGGCGAAUGGGACCCA` : is its self-cleavage no less than 0.5?
Resp: yes

Req: Hi team, for `GGCCGGCAUGGUCCCAGCCUCCUCGCUGGCGCCGGCUGGGCAACAUUCCGAGGGGACCGCCCCCUCGGAAAUGGCGAAUGGGACCCA` , is the recorded self-cleavage at or above 0.5?
Resp: yes
